Source of measurements: the nanobody polyreactivity screen of Harvey et al. (2022)

assay: yeast display, Sf9 membrane polyspecificity reagent, FACS + sequencing; frameworks hold sequencing errors
MEASURED METRIC: polyreactivity (PSR sort gate)

- QVQLVESGGGLVQAGGSLRLSCAASGSILTINAMGWYRQAPGKERELVARITISSGSTYYADSVKGRFTISRDNAKNTVYLQMNSLKPEDTAVYYCATDGRSNYYWGDYWGQGTQVTVSS: low polyreactivity
- QVQLVESGGGLVQAGGSLRLSCAASGSTFNIYAMGWYRQAPGKERELVAAITWSTGRTYYADSVKGRFTISRDTAKNTVYLQMNSLKPEDTAVYYCAARSKIRAFGYWGLGTQVTVSS: high polyreactivity
- QVQLVESVGGLVQAGGSLRLSCAASGFTFSSNAMGWYRQAPGKERELVAAISGTGGSTYYSDSVKVRITISRDNAKNTFYLLMNRLKPDDKAVYYCARVYNFYTSGYDYWGKGTQVTVSS: high polyreactivity
- QVQLVESGGGLVQAGGSLRLTCAASGSTFYTYAMGWYRQAPGNERELVAALSYGGGITYYADSVKGRFTISRDNEKNTVYIQMNSLKPEDTAVYYCAAVNGWQRYEFWGQGTQVTVSS: high polyreactivity
- QVQLVESGGGLVQAGGSLRLICDASGRIFATNAIGWYRQAPGKERELVATITRSAGRTYYADSVKGRFTISRDNAKNTVYLQMNSLKPEDTAVYYCAASYWDTEPGYREYDYWGQGTQVTVSS: low polyreactivity

For each listed entry, give its polyreactivity (PSR sort gate).
1. QVQLVESGGGLVQAGGSLRLSCAASGIIYSINAMGWYRQAPGKERELVAAISRSGGSTNYADSVKGRFTISRDNAKNTVYLQMNSLKPEDSAVYYCATVHRYSVWSHNYWGQGTQVTVSS
2. QVQLVESGGGLVQAGGSLRLSCAASGFTFPYYAMGLYRQAPGKERELVATISSGSSTNYADSVKGRFTISRDNAKNTVYLQMNSLKPEDTAVYYCAAVRSGYSGTDGQYSKYGYWGQGTQVTVSS
3. QVQLVESGGGLVQAGGSLRLSCAASGSTFVYYGMGWYRQAPGKERELVAAITDIGDSTNYADSVKGRFTISRDNAKNTVYLQMNSLKPEDTAVYYCAASGRSVPYYGSPRNDYWGQGTQVTVSS
4. QVQLVESGGGLVQAGGSLRLSCAASGITFYLYAMGWYRQAPGKERELVASITTDDSTNYADSVKGRFTISRDNAKNTVYLLMNSLKPEDTAVYYCATASYHRHHHGYDYWGQGTQVTVSS

*A*
1: high polyreactivity; 2: high polyreactivity; 3: low polyreactivity; 4: low polyreactivity

Please look at the items below and tell me polyreactivity (PSR sort gate) for each one, in order.
1. QDQLVESGGGLVQAGGSLRLSCAASARIFERYAKGWYRPPPGKEMELVAAISYRGGRTYYADSVKGRFTISRVNAKNTVYLQMNSLKPEDTAVYYCAAYTYFRDWAEYDYWGQGTQVTVSS
2. QVQLQESGGGLCRRAAASSGAASGTISYLNYMGWYRQAPGKEREFVAGINNGTTTNYADSVKGRFTISRDNAKNTVYLQMNSLKLEDTAVYYCAVDPYYTFYFWYWGQGTQLTVSS

*A*
high polyreactivity
high polyreactivity
